Reference source: ChEMBL document CHEMBL4052789

Target or system: Orexin receptor type 2 (Homo sapiens)
Sequence (O43614 whole entry): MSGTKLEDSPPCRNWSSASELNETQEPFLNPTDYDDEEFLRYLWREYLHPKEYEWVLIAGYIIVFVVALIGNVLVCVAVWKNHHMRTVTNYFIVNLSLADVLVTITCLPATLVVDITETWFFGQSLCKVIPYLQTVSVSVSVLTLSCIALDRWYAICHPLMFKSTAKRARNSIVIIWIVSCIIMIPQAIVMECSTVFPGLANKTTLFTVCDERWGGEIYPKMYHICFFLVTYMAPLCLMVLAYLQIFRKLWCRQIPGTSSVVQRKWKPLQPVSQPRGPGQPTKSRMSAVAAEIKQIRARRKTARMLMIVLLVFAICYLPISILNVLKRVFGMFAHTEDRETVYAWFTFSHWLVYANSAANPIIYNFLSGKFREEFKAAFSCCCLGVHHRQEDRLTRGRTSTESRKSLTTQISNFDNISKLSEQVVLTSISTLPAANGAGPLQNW
Test protocol: Antagonist activity at human OX2R expressed in CHOK1 cells assessed as inhibition of orexin A-induced intracellular Ca2+ release preincubated for 15 mins followed by orexin A addition by Fura 2-AM dye based fluorescence assay
pIC50: −log10 of the molar value.
Each entry below carries its reported pIC50.
Reported property: pIC50

[[record]]
smiles = "COc1ccc2c3c1O[C@H]1[C@H](N(C)C(=O)/C=C/c4ccoc4)CC[C@@]4(O)[C@@H](C2)N(S(=O)(=O)c2ccccc2)CC[C@]314"
reported_property = "pIC50"
observed = "< 5.00"

[[record]]
smiles = "COc1ccc2c3c1O[C@H]1[C@@H](N(C)C(=O)/C=C/c4ccoc4)CC[C@@]4(O)[C@@H](C2)N(S(=O)(=O)c2ccccc2)CC[C@]314"
reported_property = "pIC50"
observed = "< 5.00"

[[record]]
smiles = "COc1ccc2c(c1)[C@]13CCN(S(=O)(=O)c4ccccc4)[C@H](C2)[C@]1(O)CC[C@@H](N(C)C(=O)/C=C/c1ccoc1)C3"
reported_property = "pIC50"
observed = "< 5.00"

[[record]]
smiles = "CN(C(=O)/C=C/c1ccoc1)[C@@H]1CC[C@@]2(O)[C@H]3Cc4cccc5c4[C@@]2(CCN3S(=O)(=O)c2ccccc2)[C@H]1O5"
reported_property = "pIC50"
observed = "≤ 5.00"

